B1: Pistol ribozyme (parent)
chain: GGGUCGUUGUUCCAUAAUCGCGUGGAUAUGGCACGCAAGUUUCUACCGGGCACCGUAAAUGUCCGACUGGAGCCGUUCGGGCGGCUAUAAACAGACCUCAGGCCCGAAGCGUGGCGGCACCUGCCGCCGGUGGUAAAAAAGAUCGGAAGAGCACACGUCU

Variants of: B1
test name: aptazyme ON/OFF ratio, guanine; higher = stronger switching; co-transcriptional cleavage with and without guanine
Collected aptazyme ON/OFF ratio values appear next to each entry.

variant identifier	aptazyme ON/OFF ratio
U7C U8C G9A U10C U11C C12U	1.41
U7A G9U U10A U11G C12A	1.07
U7G U8C G9U U10G U11A	1.21
U7C U10G C12A	1.11
U7G U8G G9C U10C U11A C12G C13U	1.24
U7A G9A U10G U11A C12G C13G	1.31
G9A U10A U11G C12A C13A	1.07
U7C G9A U10C C12A C13U	1.31
U7C G9A U10A C12U C13U	1.25
U8A U11A C12U C13A	1.23
U7C U11C C13G	1.05
G9C U11G C13G	1.05
U7C U8G G9C U10A U11G	1.18
U7A U8G G9U U11A C12G C13G	1.26
U7G U8A G9C U10A C12G C13U	1.03
U7G U8C G9C U10C U11A C12G C13A	1.2
U7A U8G U10G U11C C12A C13U	1.51
U7A U8A G9A U10A U11A C12A C13U	1.34
U7G U8G U11G C12U C13G	1.26
U7G U8C G9A U10C U11G C12A	1.07
U8C U10G U11A C12G C13U	1.18
U7G G9U U10C U11C	1.42
U7G U8A G9A U10C U11C C12G C13G	1.03
U7G U10G U11A C12U C13U	1.08
U7G U8C G9A U10G U11G	1.77
U7A U8G G9C U10C U11C C12G	1.05
U8G U10G C12U C13A	1.3
U7A C12U C13G	1.16
U7A G9U U10G U11A C12A	1.2
U7C U8G G9U C12A C13A	1.42
U7C U8G G9U U11C C12U C13G	1.07
U8C G9A U11C C12A	1.3
U7G U8G G9U U10A U11A C12A C13U	1.29
U8G G9A U11C C13G	1.01
U7A U8C G9U U10A U11A C13A	1.17
U7C G9A U10A U11A C12U	1.27
U7G U8G G9C U10C U11C C12U C13A	1.08
U7A U8G G9A C13G	1.18
U7G U8G G9U U10G U11A C12G C13A	1.08
U7C U10A U11G C13A	1.24
U7A U8A G9A U10C C12U C13G	1.15
U7A U10G U11C C12A	1.76
U7G U8G G9C U10A U11A C12U	1.07
U10G U11G C12G C13A	1.1
U7A U8C G9C U10C U11C	0.989
U7C U8A G9C U10C U11A C12U C13A	1.04

// data source = the RNAGym collection of RNA variant scans (doi:10.1021/acssynbio.7b00057)
